Target: cAMP-dependent protein kinase catalytic subunit alpha (Homo sapiens)
Experiment: Protein Kinase A (PKA-HiBiT) SDR gain of signal screen
Settings: PKA-HiBiT structural dynamics response (SDR), luminescence gain of signal; series mostly up to 32.9 µM
Experimental: National Center for Advancing Translational Sciences (NCATS), National Institute of Health (NIH), Maryland […] SEQUENCE No. (e.g., 1, 2, 3, etc.); […] (e.g., C. elegans, Compounds, Incubation, Read, etc.); VALUE and DESCRIPTION. […] 6. […] (SDR assay) Luminescence measured using CCD-based camera (ViewLux) with settings as follows: Exposure, 1 sec; Gain, High; Speed, Slow; Binning, 2X.
Results filed as inconclusive are left out. Active and inactive are the calls of the source. The call rests on the fitted dose curve.
Permitted responses: YES = active, NO = inactive

Before answering, review these 5 worked examples.
Cn1cc(-c2cc3c(N4CCN(c5ncc([C@@](C)(N)c6ccc(F)cc6)cn5)CC4)ncnn3c2)cn1	NO
Cc1cc(-c2cc(O)ccc2Cl)cc2nnc(Nc3ccc(OCCN4CCCC4)cc3)nc12	NO
COc1cc(NC(=O)c2cccc(-n3cc(NC(=O)Nc4cccc(C)c4)cn3)c2)cc(OC)c1OC	NO
Cc1ncc(NC(=O)c2ccc(CN3CCN(C)CC3)c(C(F)(F)F)c2)cc1Nc1nccc(-c2cccnc2)n1	NO
Cc1nc2ccc(-n3ncc(C(=O)c4cc5ccccc5[nH]4)c3N)cc2[nH]1	NO

## Input Which result was noted for this molecule in the test: `COc1ccc(-n2c(C)c([N+](=O)[O-])c3ccc(O)cc32)cc1`
## Output NO

## Input Would you mind doing NC1CCC(Nc2nc(Nc3ccc(C(=O)N4CCCCC4)cc3)c3ncn(-c4cccc(F)c4)c3n2)CC1 (centres undefined) as well?
## Output YES

## Input Would you mind doing `C[C@@H]1CN(CC(=O)Nc2ccc3c(c2)Cc2cccc(-c4cc(=O)cc(N5CCOCC5)o4)c2S3)C[C@H](C)O1` as well?
## Output NO

## Input Would you mind doing `Cc1cc(Nc2ncc3cc(-c4c(Cl)cccc4Cl)c(=O)n(C)c3n2)ccc1F` as well?
## Output NO

## Input Would you mind doing `CC1(C)OCCn2c1nc1c(N3CCOCC3)nc(-c3cnc(N)nc3)nc12` as well?
## Output NO
